Data provenance: patent US20230310428A1

target: various mutants of kinase EGFR (BaF3 cell lines stably transfected with kinase) (Homo sapiens, UniProt P00533, T790M/C797S, form not given); construct: other: BaF3 cells stably transfected with EGFR Δ19Del/T790M/C797S; MTS, 48; other: BaF3 cell line stably transfected with EGFR Δ19Del/T790M/C7; assay: Growth inhibitory activity of compounds on BaF3 cell lines stably transfected with kinase (MTS, 48 h); format: cell-based; conditions: BaF3 cell line stably transfected with EGFR Δ19Del/T790M/C797S, read-out: Δ19Del/T790M/ C797S growth inhibitory activity IC50
Sequence (P00533 with tags, fused parts or gaps DEL746-750/T790M/C797S, form open): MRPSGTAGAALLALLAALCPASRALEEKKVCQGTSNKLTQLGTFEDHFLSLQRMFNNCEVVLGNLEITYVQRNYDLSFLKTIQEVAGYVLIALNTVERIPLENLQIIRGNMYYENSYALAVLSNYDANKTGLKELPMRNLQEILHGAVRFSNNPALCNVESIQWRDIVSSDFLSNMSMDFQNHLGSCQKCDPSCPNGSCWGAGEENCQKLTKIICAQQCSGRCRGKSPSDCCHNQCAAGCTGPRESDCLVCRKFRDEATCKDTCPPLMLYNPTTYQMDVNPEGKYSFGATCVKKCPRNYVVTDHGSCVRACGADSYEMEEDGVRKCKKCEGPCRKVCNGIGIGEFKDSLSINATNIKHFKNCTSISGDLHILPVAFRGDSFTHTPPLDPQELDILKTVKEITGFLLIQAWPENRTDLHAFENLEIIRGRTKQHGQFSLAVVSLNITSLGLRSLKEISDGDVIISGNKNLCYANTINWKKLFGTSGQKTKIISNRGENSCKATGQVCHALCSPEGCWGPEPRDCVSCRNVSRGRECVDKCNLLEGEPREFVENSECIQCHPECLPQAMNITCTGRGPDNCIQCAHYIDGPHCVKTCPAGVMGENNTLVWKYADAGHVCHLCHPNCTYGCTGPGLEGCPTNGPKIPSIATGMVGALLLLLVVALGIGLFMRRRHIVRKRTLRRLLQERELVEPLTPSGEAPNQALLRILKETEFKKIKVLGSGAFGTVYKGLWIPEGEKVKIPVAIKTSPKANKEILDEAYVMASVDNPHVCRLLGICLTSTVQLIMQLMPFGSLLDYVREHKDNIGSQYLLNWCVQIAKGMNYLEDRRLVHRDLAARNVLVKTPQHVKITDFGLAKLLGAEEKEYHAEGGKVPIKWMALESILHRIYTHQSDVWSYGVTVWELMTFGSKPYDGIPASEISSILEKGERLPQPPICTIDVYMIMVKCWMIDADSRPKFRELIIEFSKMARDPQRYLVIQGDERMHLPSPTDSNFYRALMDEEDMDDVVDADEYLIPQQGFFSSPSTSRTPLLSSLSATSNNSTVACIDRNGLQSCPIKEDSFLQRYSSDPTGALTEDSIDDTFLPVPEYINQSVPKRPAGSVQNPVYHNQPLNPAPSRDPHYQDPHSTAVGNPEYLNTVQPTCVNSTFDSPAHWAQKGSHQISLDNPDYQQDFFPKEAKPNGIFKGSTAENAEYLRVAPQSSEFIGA
Listed next: entries and their corresponding IC50.

# example entries with known answers
{"columns": ["compound.smiles", "IC50"],
 "data": [
  ["CC(C)n1cc(Nc2ncc(Br)c(Nc3ccc4nccnc4c3N(C)S(C)(=O)=O)n2)cn1", "≤ 0.05 µM"],
  ["C=Cc1cc(Nc2nc(Nc3ccc4nccnc4c3N(C)S(C)(=O)=O)c3[nH]ccc3n2)c(OC(F)(F)F)cc1N1CCC(N2CCN(C)CC2)CC1", "≤ 0.05 µM"]
]}

Looking for the measured IC50 of C=Cc1cc(Nc2nc(Nc3ccc4nccnc4c3N(C)S(C)(=O)=O)c3occc3n2)c(OC(F)(F)F)cc1N1CCC(N2CCN(C)CC2)CC1 , can you help?
0.05 to 0.5 µM
